# Target Under Test: T1, Human CD228 protein (human, UniProt P08582 20-708, limits assumed)
# T1 construct: Recombinant protein made in CHO cells, purified over a Ni column; The printed entry begins with the leader (MRGPSG...) and ends with ten His; also called hCD228; CD228-His protein
# T1 sequence: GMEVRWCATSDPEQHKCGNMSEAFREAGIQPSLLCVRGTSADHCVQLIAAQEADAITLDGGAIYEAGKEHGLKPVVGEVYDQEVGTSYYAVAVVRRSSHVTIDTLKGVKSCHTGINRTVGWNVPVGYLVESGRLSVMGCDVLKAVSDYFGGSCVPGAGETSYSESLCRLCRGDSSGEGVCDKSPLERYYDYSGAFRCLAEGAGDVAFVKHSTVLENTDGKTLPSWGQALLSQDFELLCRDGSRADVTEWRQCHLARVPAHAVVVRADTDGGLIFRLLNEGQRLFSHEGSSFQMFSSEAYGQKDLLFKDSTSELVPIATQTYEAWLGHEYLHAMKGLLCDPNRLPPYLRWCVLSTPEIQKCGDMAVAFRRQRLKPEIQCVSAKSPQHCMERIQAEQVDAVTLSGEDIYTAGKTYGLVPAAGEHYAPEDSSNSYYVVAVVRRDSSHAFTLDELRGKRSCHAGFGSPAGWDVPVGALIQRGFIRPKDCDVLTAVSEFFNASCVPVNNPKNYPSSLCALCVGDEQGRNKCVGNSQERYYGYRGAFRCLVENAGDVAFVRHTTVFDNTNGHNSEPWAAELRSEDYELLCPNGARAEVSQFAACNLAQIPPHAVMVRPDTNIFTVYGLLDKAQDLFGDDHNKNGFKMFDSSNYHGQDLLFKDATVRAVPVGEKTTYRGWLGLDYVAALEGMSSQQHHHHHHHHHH
# Assay Info: Octet competition on His-chip CD228; competitor: CA185

Binder	Octet response value
CA185 (antibody, human IgG1, kappa, V domains shown, Intact IgG1) VH: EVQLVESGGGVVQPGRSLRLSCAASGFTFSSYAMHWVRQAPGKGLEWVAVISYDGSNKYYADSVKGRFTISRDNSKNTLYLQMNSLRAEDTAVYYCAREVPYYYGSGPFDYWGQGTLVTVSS VL: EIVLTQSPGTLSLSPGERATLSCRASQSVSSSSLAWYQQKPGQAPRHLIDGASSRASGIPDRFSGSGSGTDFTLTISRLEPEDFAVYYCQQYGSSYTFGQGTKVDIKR	0.0055
CA518 (antibody, human IgG1, kappa, V domains shown, Intact IgG1) VH: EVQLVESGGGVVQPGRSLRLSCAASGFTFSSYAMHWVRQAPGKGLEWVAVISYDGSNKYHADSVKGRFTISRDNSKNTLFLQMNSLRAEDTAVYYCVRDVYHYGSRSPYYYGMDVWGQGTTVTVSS VL: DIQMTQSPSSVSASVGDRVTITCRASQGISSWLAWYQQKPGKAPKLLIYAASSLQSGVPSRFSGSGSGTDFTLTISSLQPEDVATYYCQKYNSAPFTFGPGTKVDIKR	-0.0043
BA352 (antibody, human IgG1, kappa, V domains shown, Intact IgG1) VH: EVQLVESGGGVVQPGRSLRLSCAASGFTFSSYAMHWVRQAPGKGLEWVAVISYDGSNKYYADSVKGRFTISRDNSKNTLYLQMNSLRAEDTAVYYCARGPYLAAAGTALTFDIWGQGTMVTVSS VL: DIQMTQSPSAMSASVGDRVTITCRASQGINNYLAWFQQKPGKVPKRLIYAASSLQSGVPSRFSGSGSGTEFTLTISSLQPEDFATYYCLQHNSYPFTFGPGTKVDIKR	0.426
